procedure_summary: qHTS to identify inhibitors of the type 1 interferon - major histocompatibility complex class I in skeletal muscle: primary screen against the NCATS LOPAC collection (AID 1347405);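 also: human myoblasts with HiBiT tag on endogenous HLA-B stimulated by IFN-beta; lytic HiBiT luminescence reporting HLA-B protein level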
reported_conditions: iHSKM muscle cells, IFN-b-induced MHC-I HiBiT luminescence, 24 h; series mostly up to 45.9 µM
Results filed as inconclusive are left out. Activity calls are given as the source filed them. Calls follow the shape of the dose curve; as a rule, active = well fitted inhibition curve with a large enough effect; inconclusive = small, poorly fitted or top-dose-only effect; inactive = flat fitted curve, though single readings scatter.
Outcomes you can answer with include only these: label 1 = active, label 0 = inactive

// known answers, use as guide
[[record]]
compound = "C[C@H](Cc1ccccc1)Nc1ncnc2c1ncn2[C@@H]1O[C@H](CO)[C@@H](O)[C@H]1O"
label_class = "label 0"

[[record]]
compound = "CCc1ccc(/C=C2/SC(=S)NC2=O)cc1"
label_class = "label 0"

[[record]]
compound = "Oc1cc2c(c(Cl)c1O)CCNCC2c1ccccc1 (configuration not stated)"
label_class = "label 0"

[[record]]
compound = "O=Nc1c(-c2c(O)[nH]c3ccccc23)[nH]c2ccccc12"
label_class = "label 1"


INPUT: Check the results log: what was the call for "Cc1cccc(/C=C/c2ccccc2)n1" ?
OUTPUT: label 0

INPUT: Again, but for "N.N.O=C(O)C1(C(=O)O)CCC1.[Pt+2]"
OUTPUT: label 0

INPUT: Again, but for CN1C2CCCC1CC(NC(=O)c1nn(C)c3ccccc13)C2 (configuration not stated)
OUTPUT: label 0

----------
Tested on: Zika virus NS2B-NS3 protease (linked construct)
procedure_summary: 384 well plate NINDS Rhodamine confirmatory qHTS for Zika virus inhibitors (AID 1347164);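 also: fluorescence from protease cleavage of Ac-LKRR-rhodamine 110 substrate; nearly all actives have a fitted effect of over 65% in size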
reported_conditions: rhodamine-110 peptide substrate fluorescence; series mostly up to 1 mM
Inconclusive results are not listed. The source made the active and inactive calls. Calls come from the whole dose curve; as a rule, active = well fitted inhibition curve with a large enough effect; inconclusive = small, poorly fitted or top-dose-only effect; inactive = no such curve, though single readings can be large or run the other way.
Outcomes you can answer with include only these: class 1 (active), class 0 (inactive)

// known answers, use as guide
[[record]]
compound = "Nc1ncnc2c1ncn2[C@@H]1O[C@H](CSCC[C@H](N)C(=O)O)[C@@H](O)[C@H]1O"
measurement_target = "Zika virus NS2B-NS3 protease (linked construct)"
label_class = "class 0"

[[record]]
compound = "O=C(O)COc1ccc(-c2nccc3c2C(=O)N(Cc2cccc(C(F)(F)F)c2)CC(CNC(=O)c2cccc(Cl)c2)O3)cc1 (stereo not given)"
measurement_target = "Zika virus NS2B-NS3 protease (linked construct)"
label_class = "class 1"

[[record]]
compound = "Cc1cccc(C)c1NS(=O)(=O)c1ccc(NS(=O)(=O)c2ccc3c(c2)OCCO3)cc1"
measurement_target = "Zika virus NS2B-NS3 protease (linked construct)"
label_class = "class 1"

[[record]]
compound = "CC(C)CN1CC(CNC(=O)c2ccc(Oc3ccccc3)cc2)Oc2ccnc(-c3ccc(OCC(=O)O)cc3)c2C1=O (stereo not given)"
measurement_target = "Zika virus NS2B-NS3 protease (linked construct)"
label_class = "class 1"


Pending compound:
INPUT: Check the results log: what was the call for "O=[S+]([O-])([O-])c1ccc2c(c1)cc([S+](=O)([O-])[O-])c1nn(-c3ccc(/C=C/c4ccc(-n5nc6c([S+](=O)([O-])[O-])cc7cc([S+](=O)([O-])[O-])ccc7c6n5)cc4[S+](=O)([O-])[O-])c([S+](=O)([O-])[O-])c3)nc12" ?
OUTPUT: class 1

----------
procedure_summary: qHTS for Inhibitors of Plasmodium falciparum (7G8) proliferation (AID 504316); also: nearly all actives have a fitted effect of over 65% in size
reported_conditions: P. falciparum 7G8 in erythrocytes, SYBR Green DNA, 72 h; series mostly up to 6.7 µM
Inconclusive results are not listed. Calls of active or inactive are those of the source. Calls follow the shape of the dose curve; as a rule, active = well fitted inhibition curve with a large enough effect; inconclusive = small, poorly fitted or top-dose-only effect; inactive = flat fitted curve, though single readings scatter.
Outcomes you can answer with include only these: TRUE for active, FALSE for inactive

// known answers, use as guide
[[record]]
molecule = "CCN(CC)CCCN=C1NC(c2ccccc2)C(C(=O)OC)=C(C)N1CC (stereo not drawn)"
label_class = "FALSE"

[[record]]
molecule = "C=CCNC(=O)N1CCc2nc(-c3ccc(OC)cc3C)c3c(c2C1)CO[C@@H](c1ccccc1)C3"
label_class = "TRUE"

[[record]]
molecule = "COC(=O)C1=C(C(=O)OC)[C@@H]2N(Cc3ccccc3)c3ccccc3[C@@]23C[C@@H](C(=O)OC)N(C(=O)c2cccs2)C3=N1"
label_class = "FALSE"

[[record]]
molecule = "CCCCCCC(=O)Cc1cc(OC)c(OC)cc1C=C(C(C)=O)C(=O)OC"
label_class = "FALSE"

[[record]]
molecule = "COC[C@H]1O[C@@H]2O[C@@H]1[C@@H](C=Cc1ccccc1)C[C@H]2C"
label_class = "FALSE"


INPUT: Check the results log: what was the call for "CCCNC(=O)OC[C@H]1O[C@H](CCON=C2c3cc(OC)ccc3O[C@H](c3cccc(OC)c3)[C@H]2O)C=C[C@H]1Oc1ccc(OC)cc1" ?
OUTPUT: TRUE

INPUT: Again, but for "COc1cccc([C@@H]2Oc3ccc(Br)cc3C(=O)[C@@H]2OC(=O)N[C@H](C)C2CCCCC2)c1"
OUTPUT: FALSE

INPUT: Again, but for "COC(=O)[C@H](Cc1ccccc1)NC(=O)O[C@@H]1C(=O)c2cc(Br)ccc2O[C@H]1c1ccc2c(c1)OCO2"
OUTPUT: FALSE
